Ref: paper PMC8154581

# ASSAYED SYSTEM: Mt-DprE1 (Mycobacterium tuberculosis)
# Sequence (P9WJF1 whole entry, looked up): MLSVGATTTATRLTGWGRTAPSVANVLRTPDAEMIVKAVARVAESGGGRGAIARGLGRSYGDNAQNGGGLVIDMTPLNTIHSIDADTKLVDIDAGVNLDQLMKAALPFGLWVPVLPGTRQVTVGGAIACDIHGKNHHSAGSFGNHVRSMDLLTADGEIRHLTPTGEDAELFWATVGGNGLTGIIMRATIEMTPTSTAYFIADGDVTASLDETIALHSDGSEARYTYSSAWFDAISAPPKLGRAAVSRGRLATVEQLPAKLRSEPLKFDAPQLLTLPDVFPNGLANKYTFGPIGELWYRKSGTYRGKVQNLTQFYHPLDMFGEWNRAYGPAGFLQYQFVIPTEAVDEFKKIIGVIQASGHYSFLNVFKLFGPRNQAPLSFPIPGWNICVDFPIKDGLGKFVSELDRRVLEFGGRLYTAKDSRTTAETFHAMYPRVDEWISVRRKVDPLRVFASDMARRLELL
# Format: biochemical, M. tuberculosis
Items are presented alongside their recorded IC50 DprE1.
Provide only the numeric value, understood in µg/mL.

# count of solved cases: 5
CCOC(=O)NC(=O)c1ccsc1NC(=O)c1ccc(C(=O)N2CCCCC2)cc1 [Compound 23j] :: 0.3
CCOC(=O)NC(=O)c1ccsc1NC(=O)c1ccc(C(=O)N2CCCCC2)s1 [Compound 24j] :: 0.3
COC(=O)NC(=O)c1ccsc1NC(=O)c1ccc(C(=O)N2CCCCC2)c(F)c1 [Compound 25b] :: 0.4
CCOC(=O)NC(=O)c1ccsc1NC(=O)c1ccc(C(=O)N2CCCCC2)c(F)c1 [Compound 24f] :: 0.2
O=C(Nc1sccc1C(=O)Nc1nccc(C(F)(F)F)n1)c1ccc(C(=O)N2CCCCC2)cc1 [Compound 25l] :: 0.4

Assign IC50 DprE1 to the following record: COC(=O)NC(=O)c1ccsc1NC(=O)c1ccc(C(=O)N2CCCCC2)cc1 [Compound 25a]
0.9

Assign IC50 DprE1 to the following record: CCOC(=O)NC(=O)c1ccsc1NC(=O)c1nc2ccccc2s1 [TCA1, reference compound]
0.1

----------
# ASSAY REMARKS: Hepatocyte stability assay, human
# EXPERIMENTAL CONTEXT: human hepatocytes
Items are presented alongside their recorded remaining at 0.5 h, 1 µM.

# count of solved cases: 4
COC(=O)NC(=O)c1ccsc1NC(=O)c1ccc(C(=O)N2CCCCC2)cc1 [Compound 25a] :: 35.9%
CCOC(=O)NC(=O)c1ccsc1NC(=O)c1ccc(C(=O)N2CCCCC2)c(F)c1 [Compound 24f] :: 58%
CCOC(=O)NC(=O)c1ccsc1NC(=O)c1nc2ccccc2s1 [TCA1, reference compound] :: 3.1%
COC(=O)NC(=O)c1ccsc1NC(=O)c1ccc(C(=O)N2CCCCC2)c(F)c1 [Compound 25b] :: 52.8%

Assign remaining at 0.5 h, 1 µM to the following record: CCOC(=O)NC(=O)c1ccsc1NC(=O)c1ccc(C(=O)N2CCCCC2)cc1 [Compound 23j]
66.4%

----------
# ASSAY REMARKS: Pharmacokinetic studies in Balb/c mice
# EXPERIMENTAL CONTEXT: male, Balb/c, mouse, in vivo, po, 50 mg/kg
Items are presented alongside their recorded MRT inf at 24 h.
Provide only the numeric value, understood in h.

CCOC(=O)NC(=O)c1ccsc1NC(=O)c1nc2ccccc2s1 [TCA1, reference compound] :: 2.87
COC(=O)NC(=O)c1ccsc1NC(=O)c1ccc(C(=O)N2CCCCC2)cc1 [Compound 25a] :: 1.1

As a next step, examine the compound that follows.
Assign MRT inf at 24 h to the following record: CCOC(=O)NC(=O)c1ccsc1NC(=O)c1ccc(C(=O)N2CCCCC2)c(F)c1 [Compound 24f]
2.1

----------
READOUT NAME: melting point

# count of solved cases: 5
CCOC(=O)NC(=O)c1ccsc1NC(=O)c1ccc(C(=O)NC2CCC(C)(C)CC2)cc1 [Compound 23f] :: > 250 °C
CCOC(=O)NC(=O)c1ccsc1NC(=O)c1ccc(C(=O)N2CCOCC2)cc1 [Compound 23o] :: 159 to 160 °C
CCOC(=O)NC(=O)c1ccsc1NC(=O)c1ccc2cc(C(=O)N3CCCCC3)ccc2c1 [Compound 24h] :: 177 to 178 °C
CCOC(=O)NC(=O)c1ccsc1NC(=O)c1ccc(C(=O)N(CC)CC)cc1 [Compound 23c] :: 178 to 179 °C
CCOC(=O)NC(=O)c1ccsc1NC(=O)c1ccc(C(=O)N2CCCCC2)s1 [Compound 24j] :: 175 to 176 °C

Assign melting point to the following record: COC(=O)C1CN(C(=O)c2ccsc2NC(=O)c2ccc(C(=O)N3CCCCC3)cc2)C1 [Compound 25e]
154 to 155 °C

Assign melting point to the following record: Cc1cc(C)nc(NC(=O)c2ccsc2NC(=O)c2ccc(C(=O)N3CCCCC3)cc2)n1 [Compound 25p]
189 to 190 °C
